Experiment: Displacement of [125-I]-angiotensin II from AT2R in pig myometrial membrane assessed as inhibition constant incubated for 1.5 hrs by gamma counter analysis
Format: cell membranes, Sus scrofa, Myometrium
property_measured: pKi
Friendly reminder that pKi comes from taking -log10 of the concentration in mol/L.

Reported pKi ( CCCCOC(=O)NS(=O)(=O)c1sc(CC(C)C)cc1-c1ccc(Cn2ccnc2)cc1 ) = 9.40

====

The entries below come with measured half-life at 1 µM values attached.
Assay: Metabolic stability in CD-1 mouse liver microsomes assessed as half life at 1 uM preincubated for 5 mins followed by NADPH addition and measured upto 60 mins by HPLC-MS/MS analysis
Assay type: ADME, Microsome
Conditions: time < 65 min
Reply numerically in min, unit not repeated.

Reference set, count: 6
CCCCOC(=O)NS(=O)(=O)c1ccc(CCC)cc1-c1ccc(Cn2c(-c3nccs3)nc3ccccc32)cc1
5
CCCCOC(=O)NS(=O)(=O)c1ccc(CCC)cc1-c1ccc(Cn2c(C(C)(C)C)nc3ccccc32)cc1
7
CCCCOC(=O)NS(=O)(=O)c1ccc(CCC)cc1-c1ccc(Cn2c(C)nc3ccccc32)cc1
4
CCCCOC(=O)NS(=O)(=O)c1ccc(CCC)cc1-c1ccc(Cn2cnc3ccccc32)cc1
5
CCCCOC(=O)NS(=O)(=O)c1ccc(CCC)cc1-c1ccc(Cn2c(C(F)(F)F)nc3ccccc32)cc1
4
CCCc1ccc(S(=O)(=O)NC(=O)OCCCC(F)(F)F)c(-c2cc(F)c(Cn3c(C(C)(C)C)nc4ccccc43)c(F)c2)c1
6

Let us move to another entry and its half-life at 1 µM.
For record CCCc1ccc(S(=O)(=O)NC(=O)OCCCC(F)(F)F)c(-c2ccc(Cn3c(C(C)(C)C)nc4ccccc43)cc2)c1 the listed half-life at 1 µM is 6

====

Target chain: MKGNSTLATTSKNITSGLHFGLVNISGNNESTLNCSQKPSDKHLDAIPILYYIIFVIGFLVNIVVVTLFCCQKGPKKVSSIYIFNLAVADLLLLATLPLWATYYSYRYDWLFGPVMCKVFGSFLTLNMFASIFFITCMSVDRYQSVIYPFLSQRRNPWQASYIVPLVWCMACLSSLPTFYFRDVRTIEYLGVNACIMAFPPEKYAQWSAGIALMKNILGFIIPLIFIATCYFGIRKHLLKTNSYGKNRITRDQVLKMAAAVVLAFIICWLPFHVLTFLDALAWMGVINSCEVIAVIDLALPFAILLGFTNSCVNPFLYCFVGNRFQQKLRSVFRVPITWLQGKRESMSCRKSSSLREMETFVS
property_measured: pKi
Scale explanation: pKi corresponds to minus log10 of a concentration expressed in moles per litre.

Example compounds with recorded pKi:
CCCc1ccc(S(=O)(=O)NC(=O)OCCCC(F)(F)F)c(-c2ccc(Cn3c(C(C)(C)C)nc4ccccc43)cc2)c1
8.35
CCCCOC(=O)NS(=O)(=O)c1ccc(CCC)cc1-c1ccc(Cn2c(CCCC)nc3ccccc32)cc1
8.04
CCCCOC(=O)NS(=O)(=O)c1ccc(CCC)cc1-c1ccc(Cn2c(C(C)(C)C)nc3ccccc32)cc1
8.28
CCCCOC(=O)NS(=O)(=O)c1ccc(CCC)cc1-c1ccc(Cn2c(-c3nccs3)nc3ccccc32)cc1
8.29
CCCCOC(=O)NS(=O)(=O)c1ccc(CCC)cc1-c1ccc(Cn2c(C3CC3)nc3ccccc32)cc1
7.51
CCCCOC(=O)NS(=O)(=O)c1ccc(CCC)cc1-c1ccc(Cn2c(CC(C)C)nc3ccccc32)cc1
7.72

Looking up CCCCOC(=O)NS(=O)(=O)c1ccc(CCC)cc1-c1ccc(Cn2c(C3CCCCC3)nc3ccccc32)cc1 , I see its pKi listed as 6.89

Entry CCCCOC(=O)NS(=O)(=O)c1ccc(CCC)cc1-c1ccc(Cn2c(C)nc3ccccc32)cc1 — recorded pKi = 8.03

The compound CCCCOC(=O)NS(=O)(=O)c1ccc(CCC)cc1-c1ccc(Cn2c(C34CC5CC(CC(C5)C3)C4)nc3ccccc32)cc1 showed pKi equal to 6.34

Each recorded value in this set is attributed to ChEMBL document CHEMBL5143706.
